B1: mRNA-splicing (parent)
chain: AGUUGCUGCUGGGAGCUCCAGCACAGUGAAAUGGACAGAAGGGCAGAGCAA

Variants of: B1
procedure_text: exon inclusion enrichment index; higher = more inclusion; WT1 exon 5 minigene, HEK293
Each record's exon inclusion enrichment index is compared with bottom (below 0.1), middle (0.1 to below 1), top (1 or more) to give its class.

Example entries and their recorded answers appear below.
Exercise: Which exon inclusion enrichment index category applies to U7C C9A U10C here?
Key: top

Exercise: Which exon inclusion enrichment index category applies to G5A C6U U7A G8U C9A G48C here?
Key: middle

Exercise: Which exon inclusion enrichment index category applies to G5C C6U G8C C9U U10C A20C here?
Key: top

Exercise: Which exon inclusion enrichment index category applies to C6A U7C C9A U10C G28U A29U here?
Key: top

Exercise: Which exon inclusion enrichment index category applies to U4C C6A U7C C9A U10C here?
Key: top

Exercise: Which exon inclusion enrichment index category applies to G5C C6A U7C G8A U10A G43C here?
Key: middle

Exercise: Which exon inclusion enrichment index category applies to G5A C6U U7A G8U C9A G13C A14U here?
Key: bottom

Exercise: Which exon inclusion enrichment index category applies to G5U G8U C9U A23C C24U here?
Key: bottom

---
Exercise: Which exon inclusion enrichment index category applies to C6A U7A C9A U10A A14G G15C here?
Key: middle

Values were extracted from the RNAGym collection of RNA variant scans (doi:10.1101/gr.219683.116).
